Threshold rule: melting point greater than or equal to 100 °C is true; below that, false.

The examples below pair each entry with its known result.
Does `N#CC(C#N)=Cc1ccc(O)cc1` have a reported melting point of at least 100 °C?
true

Determine whether measured melting point meets or exceeds 100 °C for `CCCCCCCCCC1CCCCC1`
false

Test whether the compound `N#Cc1cc2c(=O)oc3ccccc3c2nc1N` records melting point of 100 °C or higher.
true

New cases:
Is reported melting point greater than or equal to 100 °C here: CN(C)c1ccc(C(O)C2C(=O)N(c3ccccc3)N=C2C(F)(F)F)cc1 (configuration not stated)
true

Given the entry `CC1(C)OC(=O)C1(C)C` , answer whether its melting point meets or surpasses 100 °C.
true

The origin of these recorded values is a melting point compilation (Tetko et al.).
